Read-out: Early growth response protein 1 (EGR1) transcription factor, EGR1 (gene 1958)
assay-explanation: LTEA_HepaRG_EGR1: Life Technologies and Expression Analysis (LTEA) Assay for Early growth response protein 1 (EGR1) transcription factor using HepaRG (AID 2283490)
recorded-conditions: mRNA level, 48 h; actives raise or lower the signal
Calls of active or inactive are those of the source. Rule for the calls: active = hit-call score of the fitted dose curve at least 0.9, where 1 is the maximum; inactive = score below 0.9.
Outcomes you can answer with include only these: active, inactive

Answered cases to consult:
| compound | group-label |
| --- | --- |
| O=[N+]([O-])c1c(Cl)c(Cl)c(Cl)c(Cl)c1Cl | inactive |
| Oc1cc(Cl)ccc1Oc1ccc(Cl)cc1Cl | inactive |

Now take the following compound into account.
Q) Kindly provide the recorded test outcome for the following compound: CC1(c2ccc(Oc3ccccc3)cc2)OC(=O)N(Nc2ccccc2)C1=O (configuration not stated)
A) active
